# Tested on: primary human mesenchymal stem cells (hMSCs)
# Assay Name: Chondrogenesis screening using primary human mesenchymal stem cells
# Assay type: cell-based
# Conditions Used: Homo sapiens, Mesenchymal stem cells, hMSC chondrogenesis; concentration required to induce 50% levels of chondrogenesis with TGF-β3 as positive control; read-out: Conc (nM) of 50% TGF-β3 activity
Observed Property: EC50 (nM)

The examples below pair each entry with its known result.
O=C(Nc1cccnc1)c1n[nH]c2ccc(-c3cncc(CN4CC5CC(C4)O5)c3)cc12: 900
O=C(Nc1cncc(-c2cnc3[nH]nc(-c4cc5c(-c6ccccc6F)nccc5[nH]4)c3c2)c1)C1CC1: 30
c1cncc(-c2ccc3[nH]nc(-c4nc5cnccc5[nH]4)c3n2)c1: 30
CC(C)(C)C(=O)Nc1cncc(-c2ccc3[nH]nc(-c4nc5c(-c6ccc(F)cc6)cncc5[nH]4)c3c2)c1: 100
CC(=O)Nc1cncc(-c2ccc3[nH]nc(-c4cc5c(N6CCCCC6)nccc5[nH]4)c3c2)c1: 10

(P) Nc1cncc(-c2ccc3[nH]nc(-c4nc5c(-c6ccccc6F)ccnc5[nH]4)c3n2)c1
(Q) c1cc2cc(c1)-c1cncc3[nH]c(nc13)-c1n[nH]c3ccc(cc13)-c1cncc(c1)CNC2
// which entry reports the smaller EC50, P or Q ? Your choice should be expressed through its label.
P
(P: 10 nM, Q: 200 nM)

Provenance of the data: patent US20230000842A1
